Molecular target: T1, NHERF3_4, Q5T2W1
T1 sequence (Q5T2W1 373-468, limits assumed, looked up): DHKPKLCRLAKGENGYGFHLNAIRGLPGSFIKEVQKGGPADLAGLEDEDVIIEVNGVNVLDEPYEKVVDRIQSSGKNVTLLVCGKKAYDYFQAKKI
Assay: holdup assay
Parameters: key: below the threshold = too weak to quantify, mostly under pKd 3.1 to 4
Settings: plain residues with an end cap or a label only (N-terminal biotin on a linker: ado-ado)
endpoint: pKd

| binder | reportedValue |
| --- | --- |
| PDGQCTVTEV [RNF146, Q9NTX7] | below the threshold |
| MLSKQSESAI [FLVCR1, Q9Y5Y0] | below the threshold |
| EALLQMESVA [CAVIN3, Q969G5] | below the threshold |
| RKPKPSSSCC [RAB9A, P51151] | below the threshold |
